- assay.method.text: Conjugator-antibody conjugate stability in formulation buffer (pH 5.5 20 mM histidine buffer)
- Assay type: physicochemical
- conditions: incubation 168 h, pH 5.5, 22 °C
Maleimide ring opening ratio (%) at T = 168 h reference
Number only, in %; omit the unit.

Some solved entries appear below for comparison.
CN(C)C(=O)CCNC(=O)OCCC(CN)N1C(=O)C=CC1=O (centres unmarked) : 98.33
CN(C)C(=O)CCNC(=O)OCC(CCN)N1C(=O)C=CC1=O (centres unmarked) : 96.99
CN(C)C(=O)CCOCC(N)CN1C(=O)C=CC1=O (centres unmarked) : 97.99
CN(C)C(=O)CCCCC(CN)N1C(=O)C=CC1=O (centres unmarked) : 98.38
CN(C)C(=O)CN(C)C(=O)OCC(CN)N1C(=O)C=CC1=O (centres unmarked) : 95.50
NCC(COC(=O)NCCOCCOCCOCCOCCC(=O)O)N1C(=O)C=CC1=O (centres unmarked) : 98.86
CN(C)C(=O)CCOCCC(CN)N1C(=O)C=CC1=O (centres unmarked) : 97.15

We now examine a further compound.
Field Maleimide ring opening ratio (%) at T = 168 h (entry CN(C)C(=O)CCNC(=O)NCC(CN)N1C(=O)C=CC1=O (centres unmarked) ) reads 97.83

* * *

- assay.method.text: Conjugator-antibody conjugate maleimide hydrolysis (ring opening) kinetics by reduced LCMS
- Assay type: physicochemical
- conditions: pH 7, time point 1 h
parameter.measured: RO (%) HC
Include the unit right after the number.

Some solved entries appear below for comparison.
CN(C)C(=O)CCOCCC(CN)N1C(=O)C=CC1=O (centres unmarked) : 46.79%
CN(C)C(=O)CCCCC(CN)N1C(=O)C=CC1=O (centres unmarked) : 42.51%
CN(C)C(=O)CCNC(=O)OCC(CCN)N1C(=O)C=CC1=O (centres unmarked) : 3.41%
CN(C)C(=O)CCNC(=O)OCCC(CN)N1C(=O)C=CC1=O (centres unmarked) : 43.63%
CC(C)N(CCC(=O)N(C)C)C(=O)OCC(CN)N1C(=O)C=CC1=O (centres unmarked) : 66.09%
CN(C)C(=O)CCNC(=O)NCC(CN)N1C(=O)C=CC1=O (centres unmarked) : 45.46%
NCC(COC(=O)NCCOCCOCCOCCOCCC(=O)O)N1C(=O)C=CC1=O (centres unmarked) : 51.56%

We now examine a further compound.
Field RO (%) HC (entry CN(C)C(=O)CCOCC(N)CN1C(=O)C=CC1=O (centres unmarked) ) reads 40.83%

* * *

- assay.method.text: Conjugator-antibody conjugate maleimide hydrolysis (ring opening) kinetics by reduced LCMS
- Type: physicochemical
- conditions: pH 7, time point 5 h
- Protocol: After the conjugation step, the ADC (or conjugator-antibody conjugate) was subjected to buffer exchange into ring opening buffer (pH 6.5˜9.0, PBS, borate or tris buffer) and the solution was left at 22 or 37° C. for 1˜48 h. The maleimide ring opening process was monitored via reduced LCMS. Once the conjugated maleimide hydrolysis was completed, the resulting ADCs were buffer exchanged into basic tris pH 8.0-8.5 buffer or acidic histidine-acetate pH 5.0-6.5 buffer via dialysis. […]
RO (%) HC reference
Number only, in %; omit the unit.

Field RO (%) HC (entry CN(C)C(=O)CCNC(=O)NCC(CN)N1C(=O)C=CC1=O (stereo not drawn) ) reads 95.33

Field RO (%) HC (entry CN(C)C(=O)CCOCCC(CN)N1C(=O)C=CC1=O (stereo not drawn) ) reads 85.71

Field RO (%) HC (entry CN(C)C(=O)CCNC(=O)OCC(CCN)N1C(=O)C=CC1=O (stereo not drawn) ) reads 31.72

* * *

- assay.method.text: Conjugator-antibody conjugate maleimide hydrolysis (ring opening) kinetics by reduced LCMS
- Format: physicochemical
- conditions: pH 7, time point 5 h
RO (%) Total reference
Number only, in %; omit the unit.

Some solved entries appear below for comparison.
NCC(COC(=O)NCCOCCOCCOCCOCCC(=O)O)N1C(=O)C=CC1=O (stereo not shown) : 89.49
CN(C)C(=O)CCCCC(CN)N1C(=O)C=CC1=O (stereo not shown) : 84.91

Field RO (%) Total (entry CC(C)N(CCC(=O)N(C)C)C(=O)OCC(CN)N1C(=O)C=CC1=O (stereo not shown) ) reads 96.64

Field RO (%) Total (entry CN(C)C(=O)CCOCC(N)CN1C(=O)C=CC1=O (stereo not shown) ) reads 85.87

* * *

- assay.method.text: Conjugator-antibody conjugate maleimide hydrolysis (ring opening) kinetics by reduced LCMS
- Type: physicochemical
- conditions: pH 7, time point 5 h
parameter.measured: MS DAR
Reply briefly: the number, and no unit.

CN(C)C(=O)CCNC(=O)NCC(CN)N1C(=O)C=CC1=O (stereo not drawn) [3-12] : 8

Field MS DAR (entry CN(C)C(=O)CCNC(=O)OCC(CCN)N1C(=O)C=CC1=O (stereo not drawn) [3-11] ) reads 8

Field MS DAR (entry NCC(COC(=O)NCCOCCOCCOCCOCCC(=O)O)N1C(=O)C=CC1=O (stereo not drawn) [3-4] ) reads 7.98

Field MS DAR (entry CN(C)C(=O)CCCCC(CN)N1C(=O)C=CC1=O (stereo not drawn) [3-10] ) reads 8

Field MS DAR (entry CN(C)C(=O)CCOCCC(CN)N1C(=O)C=CC1=O (stereo not drawn) [3-14] ) reads 8

Field MS DAR (entry CN(C)C(=O)CN(C)C(=O)OCC(CN)N1C(=O)C=CC1=O (stereo not drawn) [3-8] ) reads 7.78

Field MS DAR (entry CN(C)C(=O)CCNC(=O)OCCC(CN)N1C(=O)C=CC1=O (stereo not drawn) [3-13] ) reads 8

Field MS DAR (entry CN(C)C(=O)CCOCC(N)CN1C(=O)C=CC1=O (stereo not drawn) [3-7] ) reads 8

Field MS DAR (entry CC(C)N(CCC(=O)N(C)C)C(=O)OCC(CN)N1C(=O)C=CC1=O (stereo not drawn) [3-9] ) reads 7.96

* * *

- assay.method.text: Conjugator-antibody conjugate maleimide hydrolysis (ring opening) kinetics by reduced LCMS
- Type: physicochemical
- conditions: buffer; pH 7.0; time for 50% of the maleimide rings to open; read-out: RO T1/2 (converted)
half-life reference

Field half-life (entry CN(C)C(=O)CN(C)C(=O)OCC(CN)N1C(=O)C=CC1=O (stereo not shown) ) reads 1.6 h

Field half-life (entry CN(C)C(=O)CCCCC(CN)N1C(=O)C=CC1=O (stereo not shown) ) reads 2 h

Field half-life (entry CN(C)C(=O)CCNC(=O)OCC(CCN)N1C(=O)C=CC1=O (stereo not shown) ) reads 14 h

Field half-life (entry CN(C)C(=O)CCOCCC(CN)N1C(=O)C=CC1=O (stereo not shown) ) reads 2 h

Field half-life (entry CN(C)C(=O)CCNC(=O)NCC(CN)N1C(=O)C=CC1=O (stereo not shown) ) reads 1.6 h

Field half-life (entry NCC(COC(=O)NCCOCCOCCOCCOCCC(=O)O)N1C(=O)C=CC1=O (stereo not shown) ) reads 1.6 h

Field half-life (entry CC(C)N(CCC(=O)N(C)C)C(=O)OCC(CN)N1C(=O)C=CC1=O (stereo not shown) ) reads 0.8 h

* * *

- assay.method.text: Conjugator-antibody conjugate maleimide hydrolysis (ring opening) kinetics by reduced LCMS
- Assay type: physicochemical
- conditions: pH 7, time point 7 h
RO (%) Total reference
Number only, in %; omit the unit.

Some solved entries appear below for comparison.
NCC(COC(=O)NCCOCCOCCOCCOCCC(=O)O)N1C(=O)C=CC1=O (stereo not drawn) [3-4] : 98.15
CN(C)C(=O)CCNC(=O)NCC(CN)N1C(=O)C=CC1=O (stereo not drawn) [3-12] : 96.44
CN(C)C(=O)CCCCC(CN)N1C(=O)C=CC1=O (stereo not drawn) [3-10] : 94.56
CN(C)C(=O)CN(C)C(=O)OCC(CN)N1C(=O)C=CC1=O (stereo not drawn) [3-8] : 98.21
CN(C)C(=O)CCNC(=O)OCC(CCN)N1C(=O)C=CC1=O (stereo not drawn) [3-11] : 28.42

Field RO (%) Total (entry CC(C)N(CCC(=O)N(C)C)C(=O)OCC(CN)N1C(=O)C=CC1=O (stereo not drawn) [3-9] ) reads 98.39

Field RO (%) Total (entry CN(C)C(=O)CCOCCC(CN)N1C(=O)C=CC1=O (stereo not drawn) [3-14] ) reads 89.59

Field RO (%) Total (entry CN(C)C(=O)CCOCC(N)CN1C(=O)C=CC1=O (stereo not drawn) [3-7] ) reads 87.57

Field RO (%) Total (entry CN(C)C(=O)CCNC(=O)OCCC(CN)N1C(=O)C=CC1=O (stereo not drawn) [3-13] ) reads 98.18

* * *

- assay.method.text: Conjugator-antibody conjugate maleimide hydrolysis (ring opening) kinetics by reduced LCMS
- Format: physicochemical
- conditions: pH 7, time point 7 h
MS DAR reference
Reply briefly: the number, and no unit.

Some solved entries appear below for comparison.
CN(C)C(=O)CN(C)C(=O)OCC(CN)N1C(=O)C=CC1=O (stereo not drawn) : 7.8
CN(C)C(=O)CCCCC(CN)N1C(=O)C=CC1=O (stereo not drawn) : 8
CN(C)C(=O)CCOCC(N)CN1C(=O)C=CC1=O (stereo not drawn) : 8

Field MS DAR (entry CN(C)C(=O)CCNC(=O)NCC(CN)N1C(=O)C=CC1=O (stereo not drawn) ) reads 8

Field MS DAR (entry CN(C)C(=O)CCNC(=O)OCCC(CN)N1C(=O)C=CC1=O (stereo not drawn) ) reads 8
